Values compiled from PubChem BioAssay.

assay: viability gain of MRP-1-high H69AR cells under doxorubicin, pilot screen, MRP-1 activator project, CellTiter-Glo, duplicate (AID 807); details: H69AR viability with doxorubicin, CellTiter-Glo luminescence; at 10 µM; stronger effect = higher value;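 further: compound pretreatment 18-22 h then 72 h combined with doxorubicin; 0% = doxorubicin alone and 100% = vehicle without doxorubicin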
Reported viability increase by item:
measuredMetric: viability increase (%)

querysmiles=Cn1c(C(=O)NCCc2c[nH]c3ccccc23)cc2sccc21 measuredmetric="viability increase" recordedmeasurement=-4.58
querysmiles=O=C(Cn1cnc2ccccc2c1=O)N(Cc1ccco1)c1ccc(O)cc1 measuredmetric="viability increase" recordedmeasurement=-1.76
querysmiles=C=C(C)CSc1nnc(-c2ccc(OC)c(OC)c2)n1N measuredmetric="viability increase" recordedmeasurement=-0.31
querysmiles=Cc1cc(C(=O)NCc2ccc3c(c2)OCO3)n(-c2ccccc2)n1 measuredmetric="viability increase" recordedmeasurement=-0.01

---

assay: OD615 S. cerevisiae growth inhibition, permissive medium, pilot counter-assay, permissive growth control for S. cerevisiae lifespan shortening project (AID 705); conditions: OD615, 24 h, at 10 µM, stronger effect = higher value
Record 1 whenever growth inhibition is at -10% or higher; record 0 when lower.

molecule="CCOC(=O)C1CCCN(C(=O)c2cc3c(=O)n(C)c4ccccc4c3n2C)C1 (stereo not given)" grouplabel=1
molecule=Cc1noc(C)c1S(=O)(=O)N(CC(=O)NCc1ccc(Cl)cc1)c1ccc2c(c1)OCO2 grouplabel=0
molecule="CC1Cc2nc(SCC(=O)NCc3ccco3)n(-c3ccccc3)c(=O)c2S1 (stereo not given)" grouplabel=1
molecule="Cc1noc(C(=O)N2CC3(C)CC2CC(C)(C)C3)c1Cl (stereo not given)" grouplabel=0
molecule=CCC(=O)N=c1sc2c(OC)ccc(OC)c2n1C grouplabel=1

---

test: Restrictive medium S. cerevisiae growth inhibition, OD615, pilot screen of yeast lifespan reduction project, restrictive growth control (AID 706); conditions: OD615, 48 h, at 10 µM, stronger effect = higher value;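 further: modified DeaD lifespan yeast strain shifted to restrictive glucose medium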
Active and inactive are the calls of the source.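 How the source made its calls: active means growth inhibition above a set limit, 3 SD over mean compound inhibition, in both replicates (cut at about 43% in these data); inconclusive means above the limit in only one replicate; inactive means at or below the limit in both replicates.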
measuredMetric: growth inhibition

compound=O=c1cc(N2CCOCC2)[nH]c(=O)n1Cc1ccc(F)cc1 measuredmetric="growth inhibition" recordedmeasurement="-2.77% (inactive)"
compound="COc1ccc(N2C(=O)C3CCCN3C2c2cccc(OC)c2)cc1 (stereo not given)" measuredmetric="growth inhibition" recordedmeasurement="-0.935% (inactive)"
compound=Cc1cc(C)nc(SCCCn2c(=O)[nH]c3ccccc32)n1 measuredmetric="growth inhibition" recordedmeasurement="-7.19% (inactive)"
compound=CC(=O)CCC(=O)NCCc1ccccc1F measuredmetric="growth inhibition" recordedmeasurement="9.55% (inactive)"
compound="COc1ccc2ccccc2c1C1CC(=O)N2CN(C3CCCCC3)CSC2=C1C#N (stereo not given)" measuredmetric="growth inhibition" recordedmeasurement="25.4% (inactive)"
compound="O=C(c1ccccn1)N(CC1CCCO1)C1(C(=O)NC2CCCCC2)CCCCC1 (stereo not given)" measuredmetric="growth inhibition" recordedmeasurement="-10.3% (inactive)"
compound=COc1ccc(CC(=O)c2ccc(O)cc2O)cc1OC measuredmetric="growth inhibition" recordedmeasurement="-7.7% (inactive)"
compound=CCn1c(C)nc2cc(S(=O)(=O)N3CCCC3)ccc21 measuredmetric="growth inhibition" recordedmeasurement="11.8% (inactive)"
compound="Cc1ccc(Cn2c(CN3CC(C)OC(C)C3)nc3c2c(=O)n(C)c(=O)n3C)cc1 (stereo not given)" measuredmetric="growth inhibition" recordedmeasurement="-10.8% (inactive)"
compound=N#CCCCSc1nnc(-c2ccc(Cl)cc2)n1-c1ccccc1 measuredmetric="growth inhibition" recordedmeasurement="9.62% (inactive)"
compound="O=C1c2ccccc2C(Nc2ccc3c(c2)OCCO3)N1c1ccc(Cl)cn1 (stereo not given)" measuredmetric="growth inhibition" recordedmeasurement="3.92% (inactive)"
compound=S=c1nc(-c2ccccc2)n(CCCn2ccnc2)c2c1CCCC2 measuredmetric="growth inhibition" recordedmeasurement="-0.21% (inactive)"
compound=COc1ccccc1OCC(=O)Nc1ccc(S(=O)(=O)N2CCCCCC2)cc1 measuredmetric="growth inhibition" recordedmeasurement="-4.95% (inactive)"
compound=CCOc1ccccc1NC(=O)CCS(=O)(=O)c1cccc2nonc12 measuredmetric="growth inhibition" recordedmeasurement="-21.8% (inactive)"
compound=CCOC(=O)N1CCC(Nc2cc(C)nc3c(-c4ccccc4OC)c(C)nn23)CC1 measuredmetric="growth inhibition" recordedmeasurement="-0.57% (inactive)"
compound="CC1Cc2nc(SCC(=O)NCc3ccco3)n(-c3ccccc3)c(=O)c2S1 (stereo not given)" measuredmetric="growth inhibition" recordedmeasurement="-7.02% (inactive)"
compound=Cc1ccc(-n2nnc3c(=O)n(CC(=O)N4CCOCC4)cnc32)cc1 measuredmetric="growth inhibition" recordedmeasurement="0.95% (inactive)"
compound=Cc1ccccc1NC(=O)CCn1c(=O)oc2ccccc21 measuredmetric="growth inhibition" recordedmeasurement="-26.5% (inactive)"
compound="CC1COC2C(O1)N(S(C)(=O)=O)CCN2S(C)(=O)=O (stereo not given)" measuredmetric="growth inhibition" recordedmeasurement="-12.4% (inactive)"
compound="CC1Cn2c(COc3ccccc3)nnc2S1 (stereo not given)" measuredmetric="growth inhibition" recordedmeasurement="6.73% (inactive)"
compound=O=C1c2ccccc2-c2ncnc3c(N4CCOCC4)cc(N4CCOCC4)c1c23 measuredmetric="growth inhibition" recordedmeasurement="-3.37% (inactive)"
compound=C=CCc1c(C)nc(SCc2nc3ccccc3c(=O)[nH]2)[nH]c1=O measuredmetric="growth inhibition" recordedmeasurement="15.9% (inactive)"
compound="Cc1oc(-c2cccs2)nc1CS(=O)CC(=O)NCCc1ccccc1 (stereo not given)" measuredmetric="growth inhibition" recordedmeasurement="34.7% (inactive)"
compound=CCCCOC(=O)Nc1sc2c(c1C(=O)OC)CCC2 measuredmetric="growth inhibition" recordedmeasurement="6.97% (inactive)"
compound="Cc1ccc2c(c1)c1c(n2CC(O)CN2C(=O)CNC2=O)C(=O)CCC1 (stereo not given)" measuredmetric="growth inhibition" recordedmeasurement="7.05% (inactive)"
compound=Cn1c(=O)c2c(nc(NC3CCCCC3)n2Cc2ccccc2)n(C)c1=O measuredmetric="growth inhibition" recordedmeasurement="4.89% (inactive)"
compound=Cc1cccc(NC(=O)c2ccc(S(=O)(=O)N3CCCCC3)cc2)n1 measuredmetric="growth inhibition" recordedmeasurement="-4% (inactive)"
compound="CC(=O)Nc1ccc(NC(=O)C2CC(=O)N(c3cccc(C)c3C)C2)cc1 (stereo not given)" measuredmetric="growth inhibition" recordedmeasurement="-8.03% (inactive)"
compound=Cc1ccc2cc(CCNC(=O)CC(C)C)c(=O)[nH]c2c1 measuredmetric="growth inhibition" recordedmeasurement="-0.53% (inactive)"
compound=COc1ccccc1-c1c(C)nn2c(N3CCCCCC3)cc(C)nc12 measuredmetric="growth inhibition" recordedmeasurement="-3.49% (inactive)"
